Biological target: UniProt O60674
Assay: Inhibition of JAK2 using 5 mM ATP as a substrate
Field: label. Allowed values: Fulfilled (IC50 < 100 nM) or Not fulfilled (IC50 >= 100 nM).

compound: CC(C)Oc1cc(Nc2cncc(N[C@@H](C)c3ccc(F)cn3)n2)[nH]n1
assignedCategory: Not fulfilled
//
compound: Cc1cc(Nc2nc(NC(C)c3ccc(F)cn3)c(C#N)nc2C)n[nH]1 (stereo unspecified)
assignedCategory: Fulfilled
//
compound: Cc1cc(Nc2nc(N[C@H](C)c3ccc(F)cn3)c(C#N)nc2C)n[nH]1
assignedCategory: Not fulfilled
//
compound: Cc1cc(Nc2cncc(N[C@@H](C)c3ccc(F)cn3)n2)[nH]n1
assignedCategory: Fulfilled
//
compound: Cc1cc(Nc2cncc(N[C@@H](C)c3ncc(F)cn3)n2)n[nH]1
assignedCategory: Fulfilled
//
compound: Cc1cc(Nc2cnc(C#N)c(NC(C)c3ccc(F)cn3)n2)n[nH]1 (stereo unspecified)
assignedCategory: Fulfilled
//
compound: Cc1cc(Nc2cnc(C#N)c(N[C@@H](C)c3ccc(F)cn3)n2)n[nH]1
assignedCategory: Fulfilled
//
compound: Cc1cc(Nc2nc(O[C@@H](C)c3ccc(F)cn3)c(C#N)nc2C)[nH]n1
assignedCategory: Not fulfilled
//
compound: Cc1cc(Nc2nc(O[C@H](C)c3ccc(F)cn3)c(C#N)nc2C)[nH]n1
assignedCategory: Not fulfilled
//
compound: COc1cc(Nc2cncc(N[C@@H](C)c3ccc(F)cn3)n2)[nH]n1
assignedCategory: Fulfilled
//
compound: Cc1cc(Nc2cnc(C#N)c(N[C@@H](C)c3ncc(F)cn3)n2)n[nH]1
assignedCategory: Fulfilled

* * *

Let's go through some IC50 measurements on Tyrosine-protein kinase JAK3 (Homo sapiens) together.
Sequence (P52333 whole entry): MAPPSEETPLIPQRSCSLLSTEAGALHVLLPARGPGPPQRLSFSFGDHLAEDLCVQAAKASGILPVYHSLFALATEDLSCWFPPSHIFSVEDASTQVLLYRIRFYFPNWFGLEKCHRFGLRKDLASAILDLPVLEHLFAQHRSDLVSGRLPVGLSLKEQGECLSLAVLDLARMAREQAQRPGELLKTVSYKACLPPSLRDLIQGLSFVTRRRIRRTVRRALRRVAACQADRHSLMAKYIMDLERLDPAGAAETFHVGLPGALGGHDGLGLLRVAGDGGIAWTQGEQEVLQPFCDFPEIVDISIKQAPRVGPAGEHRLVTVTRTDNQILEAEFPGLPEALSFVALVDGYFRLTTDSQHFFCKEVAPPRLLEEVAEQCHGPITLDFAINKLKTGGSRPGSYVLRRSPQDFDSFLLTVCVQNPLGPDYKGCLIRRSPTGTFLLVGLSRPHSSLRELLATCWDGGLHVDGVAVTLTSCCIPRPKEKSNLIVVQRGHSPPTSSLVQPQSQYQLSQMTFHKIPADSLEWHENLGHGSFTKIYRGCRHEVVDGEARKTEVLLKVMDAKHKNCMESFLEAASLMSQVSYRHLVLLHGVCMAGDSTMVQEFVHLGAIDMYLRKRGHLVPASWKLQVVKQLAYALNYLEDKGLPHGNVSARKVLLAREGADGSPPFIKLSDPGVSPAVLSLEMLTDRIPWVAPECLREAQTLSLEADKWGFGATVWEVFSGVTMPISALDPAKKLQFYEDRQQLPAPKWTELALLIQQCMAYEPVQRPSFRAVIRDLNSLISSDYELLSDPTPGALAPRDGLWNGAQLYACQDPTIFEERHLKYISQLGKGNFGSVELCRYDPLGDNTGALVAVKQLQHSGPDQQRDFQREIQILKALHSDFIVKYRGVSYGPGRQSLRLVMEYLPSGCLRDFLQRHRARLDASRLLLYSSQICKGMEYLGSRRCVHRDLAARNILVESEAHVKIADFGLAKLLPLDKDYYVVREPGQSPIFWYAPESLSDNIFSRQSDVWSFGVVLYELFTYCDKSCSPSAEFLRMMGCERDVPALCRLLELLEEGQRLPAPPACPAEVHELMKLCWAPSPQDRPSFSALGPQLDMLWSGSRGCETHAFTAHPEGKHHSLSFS

molecule: Cc1cc(Nc2cncc(N[C@@H](C)c3ncc(F)cn3)n2)n[nH]1
unitSpec: µM
limitQualifier: =
IC50: 13.7
--
molecule: Cc1cc(Nc2nc(N[C@H](C)c3ncc(F)cn3)c(C#N)nc2C)[nH]n1
unitSpec: µM
limitQualifier: >
IC50: 30
--
molecule: Cc1cc(Nc2nc(O[C@@H](C)c3ccc(F)cn3)c(C#N)nc2C)[nH]n1
unitSpec: µM
limitQualifier: >
IC50: 30
--
molecule: Cc1cc(Nc2cncc(N[C@@H](C)c3ccc(F)cn3)n2)[nH]n1
unitSpec: µM
limitQualifier: =
IC50: 11.7

* * *

Target: Tyrosine-protein kinase JAK2 (Homo sapiens)
Sequence (O60674 whole entry): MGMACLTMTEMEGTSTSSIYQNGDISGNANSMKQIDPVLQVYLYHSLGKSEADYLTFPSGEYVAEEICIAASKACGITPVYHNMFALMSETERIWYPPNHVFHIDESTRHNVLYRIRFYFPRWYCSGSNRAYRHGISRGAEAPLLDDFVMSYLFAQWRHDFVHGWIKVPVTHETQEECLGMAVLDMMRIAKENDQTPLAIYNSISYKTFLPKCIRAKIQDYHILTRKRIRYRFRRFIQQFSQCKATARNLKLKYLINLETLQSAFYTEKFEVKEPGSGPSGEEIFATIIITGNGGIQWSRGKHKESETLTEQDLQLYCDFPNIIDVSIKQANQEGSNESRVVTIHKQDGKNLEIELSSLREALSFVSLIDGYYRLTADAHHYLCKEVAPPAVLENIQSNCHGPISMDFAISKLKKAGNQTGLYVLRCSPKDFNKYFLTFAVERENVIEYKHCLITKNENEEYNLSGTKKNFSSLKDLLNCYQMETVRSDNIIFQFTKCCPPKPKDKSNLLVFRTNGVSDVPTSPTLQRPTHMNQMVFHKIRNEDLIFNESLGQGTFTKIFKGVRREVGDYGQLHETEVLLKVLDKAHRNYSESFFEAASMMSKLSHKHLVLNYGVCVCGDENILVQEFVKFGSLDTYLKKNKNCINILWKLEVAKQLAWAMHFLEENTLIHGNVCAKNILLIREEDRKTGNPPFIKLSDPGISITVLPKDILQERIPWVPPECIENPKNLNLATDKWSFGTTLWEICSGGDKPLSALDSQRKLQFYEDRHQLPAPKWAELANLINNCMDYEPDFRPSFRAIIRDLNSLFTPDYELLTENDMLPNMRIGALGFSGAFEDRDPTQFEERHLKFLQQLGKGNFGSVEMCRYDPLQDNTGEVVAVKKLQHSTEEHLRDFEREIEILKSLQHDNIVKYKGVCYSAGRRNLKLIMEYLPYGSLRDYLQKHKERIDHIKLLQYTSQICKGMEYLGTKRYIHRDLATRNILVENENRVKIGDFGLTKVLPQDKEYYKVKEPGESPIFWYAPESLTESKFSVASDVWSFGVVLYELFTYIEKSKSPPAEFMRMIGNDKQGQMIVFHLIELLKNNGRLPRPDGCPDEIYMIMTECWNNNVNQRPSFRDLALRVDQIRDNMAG
Assay: Inhibition of JAK2 using 5 mM ATP as a substrate
pIC50: −log10 of the molar value.
experimentalEndpoint: pIC50

molecule: C[C@H](Nc1nc(Nc2cc(C3CC3)n[nH]2)cnc1C#N)c1ccc(F)cn1
experimentalEndpoint: pIC50
observedValue: 7.60

molecule: Cc1cc(Nc2nc(N[C@H](C)c3ncc(F)cn3)c(C#N)nc2C)[nH]n1
experimentalEndpoint: pIC50
observedValue: 4.98

molecule: Cc1cc(Nc2nc(N[C@@H](C)c3ccc(F)cn3)cnc2C)[nH]n1
experimentalEndpoint: pIC50
observedValue: 7.74

molecule: Cc1cc(Nc2nc(N[C@@H](C)c3ncc(F)cn3)c(C#N)nc2C)n[nH]1
experimentalEndpoint: pIC50
observedValue: 7.06

molecule: Cc1cc(Nc2nc(N[C@@H](C)c3ccc(F)cn3)c(C#N)nc2C)n[nH]1
experimentalEndpoint: pIC50
observedValue: 7.96

* * *

Assay: Half life Beagle dog at 10 mg/kg, po and 3 mg/kg, iv
Type: ADME, organism-based, Canis lupus familiaris
Conditions: in vivo

molecule: Cc1cc(Nc2nc(N[C@@H](C)c3ncc(F)cn3)c(C#N)nc2C)n[nH]1
half-life: 7 h
